- TARGET ENTITY: Histone deacetylase 3 (Homo sapiens) (UniProt O15379)
- Sequence (O15379 whole entry, looked up): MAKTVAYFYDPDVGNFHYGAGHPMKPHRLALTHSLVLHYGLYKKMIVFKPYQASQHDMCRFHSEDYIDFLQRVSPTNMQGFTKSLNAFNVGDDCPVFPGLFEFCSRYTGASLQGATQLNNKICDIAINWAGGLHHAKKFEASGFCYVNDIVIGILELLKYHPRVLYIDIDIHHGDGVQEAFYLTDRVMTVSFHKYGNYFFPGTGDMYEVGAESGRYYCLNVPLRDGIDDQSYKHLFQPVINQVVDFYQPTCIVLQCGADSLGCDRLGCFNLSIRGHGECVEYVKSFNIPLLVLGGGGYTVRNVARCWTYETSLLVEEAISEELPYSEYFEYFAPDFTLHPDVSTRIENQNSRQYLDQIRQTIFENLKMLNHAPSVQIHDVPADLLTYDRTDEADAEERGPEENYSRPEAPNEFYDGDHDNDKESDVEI
- ASSAY REMARKS: inhibition of human HDAC3 enzymatic activity – biochemical, fluorescence, cherry-picked samples, counter-screen for JMJD2C/GASC1 demethylase inhibitor project, dose response (AID 485318);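 further: enzyme preincubated with compound before substrate and trypsin were added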
- DETAILS: recombinant HDAC3, fluorogenic peptide/trypsin coupled; series mostly up to 12 µM
The campaign covered roughly 1,400 compounds. Fewer than 10 were called active. The list is a sample of the results.
PROPERTY NAME: outcome

Worked examples, 5 compounds total:
COc1ccc(NC(=S)NCCCn2ccnc2)cc1 :: inactive
O=C(c1ccsc1)N1CCN(C(=O)c2cccs2)CC1 :: inactive
NS(=O)(=O)c1ccc(CNC(=S)Nc2ccc(F)c(Cl)c2)cc1 :: inactive
C/C(=N\Nc1nc(C(=O)O)cs1)c1ccccc1 :: inactive
CCn1c(SCC(=O)NCc2ccco2)nnc1-c1cccs1 :: inactive

Next up:
Q) # lookup: outcome of `CCN(Cc1nc(-c2ccccc2)no1)C(=O)c1ccco1`
A) inactive
